# Tested on: gastric acid secretion
# assay_name: Action on Gastric Acid Secretion (Shay Rat, pylorus ligation)
# Format: in vivo, Sprague-Dawley strain male rats
# test_settings: intraduodenal immediately after pylorus ligation, 4 h gastric juice
quantity_name: ED50
# output: number + unit

Example entries begin here.
molecule	ED50
CCOC(=O)C(C(=S)NC1CCCCC1)c1ccccn1 (stereo not shown) [Example 4]	15.5 mg/kg
CC(C)=CCOC(=O)C(C(N)=S)c1ccccn1 (stereo not shown) [Example 18]	7.8 mg/kg
CC(C)=CCC/C(C)=C/COC(=O)C(C(=S)Nc1ccccc1)c1ccccn1 (stereo not shown) [Example 14]	36 mg/kg
CCCNC(=S)C(C(=O)OCC)c1ccccn1 (stereo not shown) [Example 19]	3.8 mg/kg
CCOC(=O)C(C(=S)NCc1ccccn1)c1ccccn1 (stereo not shown) [Example 24]	6.4 mg/kg
CNC(=S)C(C(=O)OCc1ccccc1)c1ccccn1 (stereo not shown) [Example 8]	12.3 mg/kg

molecule CCOC(=O)C(C(=S)NC)c1ccccn1 (stereo not shown) [Example 1] , ED50 observed: 2.4 mg/kg

molecule C=CCNC(=S)C(C(=O)OCC=C(C)C)c1ccccn1 (stereo not shown) [Example 10] , ED50 observed: 4.4 mg/kg

molecule CC(C)=CCC/C(C)=C/COC(=O)C(C(N)=S)c1ccccn1 (stereo not shown) [Example 17] , ED50 observed: 5.3 mg/kg

molecule CNC(=S)C(C(=O)OC/C=C(\C)CCC=C(C)C)c1ccccn1 (stereo not shown) [Example 12] , ED50 observed: 5 mg/kg

====

# assay_name: Toxicity (LD50) in rat
# test_settings: in vivo, oral
quantity_name: LD50

molecule CC(C)=CCC/C(C)=C/COC(=O)C(C(N)=S)c1ccccn1 (stereo not shown) [Example 17] , LD50 observed: > 2860 mg/kg

====

# Test system: gastric acid secretion
# assay_name: Action on Gastric Acid Secretion (Shay Rat, pylorus ligation)
# Assay type: in vivo, Sprague-Dawley strain male rats
# test_settings: intraduodenal immediately after pylorus ligation, 4 h gastric juice
Lab note: cut-off is 6 mg/kg. Strictly less in ED50 is t. Exactly 6 mg/kg or more is f.

Asked: Below 6 mg/kg on ED50? Entry CCOC(=O)C(C(=S)Nc1ccccc1)c1ccccn1 (centres unmarked)
Given back: f

Asked: Below 6 mg/kg on ED50? Entry C=CCNC(=S)C(C(=O)OCC)c1ccccn1 (centres unmarked)
Given back: t

Asked: Below 6 mg/kg on ED50? Entry CCNC(=S)C(C(=O)OCC)c1ccccn1 (centres unmarked)
Given back: t

Asked: Below 6 mg/kg on ED50? Entry CNC(=S)C(C(=O)OCC=C(C)C)c1ccccn1 (centres unmarked)
Given back: t

Asked: Below 6 mg/kg on ED50? Entry CNC(=S)C(C(=O)OC/C=C(\C)CC/C=C(\C)CCC=C(C)C)c1ccccn1 (centres unmarked)
Given back: t
